Biological target: D(2) dopamine receptor (Rattus norvegicus)
Assay: Ratio of Dopamine D2 receptor (low)and Dopamine D2 receptor (high)
METRIC_NAME: Ratio
// no unit, no text: just the number

> print(dat)
                 molecule.smiles  measured.value
1  CCCCNCCOc1ccc(Cl)c2c1CC(=O)N2              17
2       Oc1cccc(OCCNCc2ccccc2)c1              32

[Q] Given `Clc1ccc(OCCNCc2cccs2)c2c(Cl)c[nH]c12` , respond with its Ratio.
[A] 3

[Q] Given `O=C1Cc2c(cccc2OCCNCCCCc2ccccc2)N1` , respond with its Ratio.
[A] 9

[Q] Given `O=C(c1c[nH]c2cccc(OCCNCc3ccccc3)c12)C(F)(F)F` , respond with its Ratio.
[A] 6

[Q] Given `O=C1Cc2c(OCCN3Cc4ccccc4C3)ccc(F)c2N1` , respond with its Ratio.
[A] 7

[Q] Given `Clc1ccc(CNCCOc2ccc(Cl)c3[nH]cc(Cl)c23)cc1` , respond with its Ratio.
[A] 0.4

[Q] Given `Clc1ccc(OCCNCc2ccccc2)c2c(Cl)c[nH]c12` , respond with its Ratio.
[A] 3

[Q] Given `O=C1Cc2c(OCCN3CCc4ccccc4C3)ccc(Cl)c2N1` , respond with its Ratio.
[A] 8

[Q] Given `c1ccc(CNCCOc2cccc3[nH]ccc23)cc1` , respond with its Ratio.
[A] 4

[Q] Given `Clc1ccc(OCCNCc2ccccc2)c2cc[nH]c12` , respond with its Ratio.
[A] 2

[Q] Given `Fc1ccc(CNCCOc2ccc(Cl)c3[nH]cc(Cl)c23)cc1` , respond with its Ratio.
[A] 1

[Q] Given `Cc1ccc(CNCCOc2ccc(Cl)c3c2CC(=O)N3)cc1` , respond with its Ratio.
[A] 9

[Q] Given `c1ccc(CCCCNCCOc2cccc3[nH]ccc23)cc1` , respond with its Ratio.
[A] 3

[Q] Given `CN(CCOc1ccc(Cl)c2c1CC(=O)N2)Cc1ccccc1` , respond with its Ratio.
[A] 9

[Q] Given `CNCCOc1cccc2c1CC(=O)N2` , respond with its Ratio.
[A] 74

[Q] Given `O=C1Cc2c(OCCNCc3ccc4ccccc4c3)ccc(F)c2N1` , respond with its Ratio.
[A] 14

[Q] Given `O=C1Cc2c(OCCNCc3ccc(-c4ccccc4)cc3)ccc(Cl)c2N1` , respond with its Ratio.
[A] 3

[Q] Given `O=C1Cc2c(OCCNCc3ccccc3)ccc(Cl)c2N1` , respond with its Ratio.
[A] 7

[Q] Given `NCCOc1ccc(F)c2c1CC(=O)N2` , respond with its Ratio.
[A] 76

[Q] Given `O=C1Cc2c(OCCNCc3ccc(F)cc3)ccc(Cl)c2N1` , respond with its Ratio.
[A] 11

[Q] Given `O=C1Cc2c(ccc3c2O[C@@H](CNCc2ccccc2)CC3)N1` , respond with its Ratio.
[A] 42

[Q] Given `CN(CCCC(=O)c1ccc(F)cc1)CCOc1cccc2c1CC(=O)N2` , respond with its Ratio.
[A] 8

[Q] Given `Clc1c[nH]c2cccc(OCCNCCCCc3ccccc3)c12` , respond with its Ratio.
[A] 3

[Q] Given `O=C1Cc2c(OCCNCCCc3c[nH]c4ccccc34)ccc(F)c2N1` , respond with its Ratio.
[A] 20
